# Tested on: SH-SY5Y
# assay: Cytotoxicity against human SH-SY5Y cells assessed as reduction in cell viability incubated for 72 hrs by CellTiter-Glo assay
# Type: toxicity, cell-based
# run-parameters: sh-sy5y, 72 h
Form field: CC50 (one value per entry).
assay-readout: CC50

compound	result
O=c1c2cc(Cl)c(Cl)cc2nc2n1CC[C@H]1NCCC[C@H]21 (racemic)	> 20 µM
Cc1ccc2nc3n(c(=O)c2c1)CC[C@@H]1[C@H]3CCCN1C (racemic)	> 20 µM
CC(C)(C)C(=O)N1CCC[C@@H]2c3nc4cc(Cl)c(Cl)cc4c(=O)n3CC[C@H]21 (racemic)	> 20 µM
O=C(N1CCOCC1)N1CCC[C@@H]2c3nc4cc(Cl)c(Cl)cc4c(=O)n3CC[C@H]21 (racemic)	> 20 µM
COc1cc2nc3n(c(=O)c2cc1Cl)CC[C@@H]1[C@@H]3CCCN1CCN1CCCC1 (racemic)	> 20 µM
O=c1c2cc(Cl)c(Cl)cc2nc2n1CC[C@@H]1[C@@H]2CCCN1CCO (racemic)	> 20 µM
O=C(c1ccccc1)N1CCC[C@@H]2c3nc4cc(Cl)c(Cl)cc4c(=O)n3CC[C@H]21 (racemic)	> 20 µM
COc1cc2nc3n(c(=O)c2cc1Cl)CC[C@@H]1[C@@H]3CCCN1CC1CC1 (racemic)	1 µM
CN1CCC[C@@H]2c3nc4cccc(Cl)c4c(=O)n3CC[C@H]21 (racemic)	> 20 µM
O=c1c2cc(Cl)c(Cl)cc2nc2n1CC[C@@H]1[C@@H]2CCCN1Cc1cccnc1 (racemic)	> 20 µM
COCCN1CCC[C@@H]2c3nc4cc(Cl)c(Cl)cc4c(=O)n3CC[C@H]21 (racemic)	10 µM
COc1cc2nc3n(c(=O)c2cc1Cl)CC[C@H]1[C@H]3CCCN1CC(C)C	1 µM
CN1CCC[C@@H]2c3nc4ccccc4c(=O)n3CC[C@H]21 (racemic)	> 20 µM
COc1cc2nc3n(c(=O)c2cc1Cl)CC[C@@H]1[C@@H]3CCCN1CCN1CCOCC1 (racemic)	> 20 µM
CC(C)CN1CCC[C@@H]2c3nc4cc(Cl)c(Cl)cc4c(=O)n3CC[C@H]21 (racemic)	> 20 µM
O=c1c2cc(Cl)c(Cl)cc2nc2n1CC[C@@H]1[C@@H]2CCCN1CC1CCOCC1 (racemic)	> 20 µM
